assayedTarget: tyrosinase (Mus musculus)
Construct: the supernatant obtained constitutes the cell lysate used as tyrosinase source in the enzymatic assay; endogenous in cells; detergent lysate supernatant
Sequence (P11344 19-533): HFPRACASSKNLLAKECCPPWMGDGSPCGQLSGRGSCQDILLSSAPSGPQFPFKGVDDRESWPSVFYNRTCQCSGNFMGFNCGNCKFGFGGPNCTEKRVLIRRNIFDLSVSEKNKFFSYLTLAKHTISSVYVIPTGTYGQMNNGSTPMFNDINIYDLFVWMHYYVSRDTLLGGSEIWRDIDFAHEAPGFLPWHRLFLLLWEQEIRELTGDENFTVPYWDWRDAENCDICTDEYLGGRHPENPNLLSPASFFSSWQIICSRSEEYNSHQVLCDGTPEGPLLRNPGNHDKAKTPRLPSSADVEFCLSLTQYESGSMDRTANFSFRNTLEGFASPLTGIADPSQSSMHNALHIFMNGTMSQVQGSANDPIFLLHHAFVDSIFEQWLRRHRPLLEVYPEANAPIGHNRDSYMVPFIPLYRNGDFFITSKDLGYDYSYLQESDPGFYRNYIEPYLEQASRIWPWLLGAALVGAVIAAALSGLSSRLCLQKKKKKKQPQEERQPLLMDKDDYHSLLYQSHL
procedureSummary: Tyrosinase activity inhibition assay (B16F1 cell lysate, L-tyrosine substrate, MBTH, absorbance at 520 nm)
condition: lysate of B16F1 cells (murine melanoma line) as tyrosinase source, 37° C., reading at 520 nm after 6 hours
Reported IC50 is given for each of the following compounds.
// units = nM; emit number, no label

| compound | unitLabel | IC50 |
| --- | --- | --- |
| COn1ccn(C)c1=S [Compound 3] | nM | 72000 |
| On1c(-c2ccccc2)c[nH]c1=S [Compound 4] | nM | 890 |
| COc1ccc(-c2c[nH]c(=S)n2O)cc1 [Compound 6] | nM | 820 |

// switching to the query compound
Entry On1c(-c2cccs2)c[nH]c1=S [Compound 8] , tested on tyrosinase (Mus musculus), has a reported IC50 of 3700

Attribution: patent US20100010049A1
